Could you please report measured melting point for the items listed next?

Suppose we examine the molecule CC1(C)C2CCC1(C)C(OC(=O)C=Cc1ccc(OCc3ccccc3)cc1)C2 (stereo not shown) ; what melting point value has been reported? 93 to 95 °C

Suppose we examine the molecule COc1ccc(/C=C/C(=O)O[C@@H]2CC3CCC2(C)C3(C)C)cc1 (stereo partly drawn) [Compound 16, 4-Methoxycinnamic Acid (−)-Bornyl Ester] ; what melting point value has been reported? 87 to 90 °C

Suppose we examine the molecule CC1(C)C2CCC1(C)C(OC(=O)C=Cc1ccc([N+](=O)[O-])cc1)C2 (stereo not shown) ; what melting point value has been reported? 121 to 123 °C

Suppose we examine the molecule CN(C)c1ccc(C=CC(=O)OC2CC3CCC2(C)C3(C)C)cc1 (stereo not shown) ; what melting point value has been reported? 114 to 116 °C

* * *

- assay-method-text: Cytotoxicity against bone marrow derived macrophages (BMDM)
- Format: cell-based, murine
- cond: mouse
- Text: The amastigote is the intracellular pathogenic form of the parasite in the vertebrate host and therefore the important target. […] With regard to antileishmanial activity cinnamic acid menthyl (20) and […] (19) show good activities combined with low cytotoxicity. […] Materials and methods for the biological assays have been described before by the authors. […] The protocol for the L. donovani quantitative colorimetric assay is outlined by Hazra et al.. […]
observable: pIC50
// pIC50: -log10(molar conc.)

Suppose we examine the compound CC1(C)C2CCC1(C)[C@H](OC(=O)/C=C/c1ccc(O)c(O)c1)C2 (stereo partly drawn) [Compound 1, Caffeic Acid (−)-bornyl Ester] ; what pIC50 value has been reported? 5.28

Suppose we examine the compound Cc1ccc(C(C)C)c(OC(=O)/C=C/c2ccc(O)c(O)c2)c1 ; what pIC50 value has been reported? 5.01

Suppose we examine the compound CC1(C)C2CCC1(C)C(OC(=O)C=Cc1ccccc1)C2 (stereo not drawn) [Compound 15, Cinnamic Acid (−)-Bornyl Ester] ; what pIC50 value has been reported? 4.27

Suppose we examine the compound CC1(C)C2CCC1(C)C(OC(=O)C=Cc1ccc(O)c(O)c1)C2 (centres unmarked) ; what pIC50 value has been reported? 4.96

Suppose we examine the compound CCCCCCCCCCCCCCCCOP(=O)([O-])OCC[N+](C)(C)C [miltefosine, reference compound] ; what pIC50 value has been reported? 4.18

Suppose we examine the compound COc1ccc(/C=C/C(=O)OC2CC3CCC2(C)C3(C)C)cc1O (stereo not drawn) [Compound 2, Isoferulic Acid (−)-bornyl Ester] ; what pIC50 value has been reported? 4.31

* * *

- Test system: L. major amastigotes
- assay-method-text: L. major amastigote assay
- Assay type: cell-based, Leishmania major
- cond: SI = IC50 for BMDM/IC50 for L. major (amastigotes)
observable: Selectivity index SI
Quick one: just the number, no unit, thanks!

Suppose we examine the compound CC1(C)C2CCC1(C)C(OC(=O)C=Cc1ccccc1)C2 (stereo not drawn) [Compound 15, Cinnamic Acid (−)-Bornyl Ester] ; what Selectivity index SI value has been reported? 5.0

Suppose we examine the compound CC1(C)C2CCC1(C)C(OC(=O)C=Cc1ccc(O)c(O)c1)C2 (centres unmarked) [Compound 7, Caffeic Acid Isobornyl Ester] ; what Selectivity index SI value has been reported? 0.2

Suppose we examine the compound CC1(C)C2CCC1(C)[C@H](OC(=O)/C=C/c1ccc(O)c(O)c1)C2 (stereo partly drawn) [Compound 1, Caffeic Acid (−)-bornyl Ester] ; what Selectivity index SI value has been reported? 0.1

Suppose we examine the compound COc1ccc(/C=C/C(=O)OC2CC3CCC2(C)C3(C)C)cc1O (stereo not drawn) [Compound 2, Isoferulic Acid (−)-bornyl Ester] ; what Selectivity index SI value has been reported? 1.2

Suppose we examine the compound CCCCCCCCCCCCCCCCOP(=O)([O-])OCC[N+](C)(C)C [miltefosine, reference compound] ; what Selectivity index SI value has been reported? 2.0

Suppose we examine the compound Cc1ccc(C(C)C)c(OC(=O)/C=C/c2ccc(O)c(O)c2)c1 [Compound 10, Caffeic Acid Thymyl Ester] ; what Selectivity index SI value has been reported? 0.2

* * *

- System: J774.1 murine cell line
- assay-method-text: AlamarBlue cytotoxicity assay on J774.1 macrophages
- Format: cell-based
- cond: mean of two independent experiments
observable: pIC50
// pIC50: -log10(molar conc.)

Suppose we examine the molecule COc1ccc(/C=C/C(=O)OC2CC3CCC2(C)C3(C)C)cc1O (stereo not drawn) [Compound 2, Isoferulic Acid (−)-bornyl Ester] ; what pIC50 value has been reported? 4.31

* * *

- Test system: L. major promastigotes
- assay-method-text: AlamarBlue assay, antileishmanial activity against L. major promastigotes
- Type: cell-based, Leishmania major
- cond: Leishmania major, mean of two independent experiments
observable: pIC50
// pIC50: -log10(molar conc.)

What measured pIC50 is associated with CC1(C)C2CCC1(C)[C@H](OC(=O)/C=C/c1ccc(O)c(O)c1)C2 (stereo partly drawn) [Compound 1, Caffeic Acid (−)-bornyl Ester] on L. major promastigotes? 4.31

What measured pIC50 is associated with N=C(N)c1ccc(OCCCCCOc2ccc(C(=N)N)cc2)cc1 [pentamidine, reference compound] on L. major promastigotes? 4.09

What measured pIC50 is associated with CC1(C)C2CCC1(C)[C@@H](OC(=O)/C=C/c1ccccc1)C2 (some centres unmarked) on L. major promastigotes? 4.19
